# ASSAY DETAILS: activity coefficient (dimensionless); of the first substance listed, at infinite dilution; xn = mol fraction of the nth substance listed
# ASSAY CONDITIONS: 363.15 K; Liquid; circulation equilibrium still; x1 = 0

| MOLECULE | activity coefficient |
| --- | --- |
| CCC(C)O (centres undefined) [butan-2-ol] + O | 40.4 |
| CC(C)(C)O [2-methylpropan-2-ol] + O | 26.3 |
| CC(C)O [propan-2-ol] + O | 12.9 |
| CC(C)CO [2-methyl-1-propanol] + O | 54.3 |

----------
# ASSAY DETAILS: activity coefficient (dimensionless); of the first substance listed, at infinite dilution; xn = mol fraction of the nth substance listed
# ASSAY CONDITIONS: 371.15 K; Liquid; circulation equilibrium still; x1 = 0
EXPERIMENTAL READOUT: activity coefficient

| COMPOUND | OBS VALUE |
| --- | --- |
| CC(C)O [propan-2-ol] + O | 13.1 |
| CC(C)CO [2-methyl-1-propanol] + O | 52.2 |
| CC(C)(C)O [2-methylpropan-2-ol] + O | 27.4 |
| CCC(C)O (centres undefined) [butan-2-ol] + O | 37.8 |
